- System: vancomycin-resistant Enterococus faecalis (VRE)(ATCC 51575)
- Type: cell-based, Enterococcus faecalis
- Parameters: key: peptide concentration in μg/ml (broth dilution assay)
- runConditions: Table 9; media b: MHBII
Non-standard residues stand in square brackets, D forms with d. Residues, ends and D or L forms follow the SMILES beside them.
quantityMeasured: VRE (in vitro activity)

CC(C)C[C@@H]1NC(=O)[C@@H](Cc2c[nH]c3ccccc23)NC(=O)[C@H](C(C)C)NC(=O)[C@@H](CCCNC(=N)N)NC(=O)[C@H](CCC(N)=O)NC(=O)[C@@H](CCCNC(=N)N)NC(=O)[C@H](Cc2c[nH]c3ccccc23)NC(=O)[C@@H](Cc2c[nH]c3ccccc23)NC1=O [SEQ ID NO:70, [QRVWLWWR]] (cyclo(Q[dR]V[dW]L[dW]W[dR])) : 6.3

Enquiry: Identify measured VRE (in vitro activity) corresponding to CC[C@H](C)[C@@H]1NC(=O)[C@@H](CC(C)C)NC(=O)[C@H](CCCCN)NC(=O)[C@@H](CO)NC(=O)[C@H](CCCCN)NC(=O)[C@@H](CC(C)C)NC(=O)[C@H]([C@@H](C)CC)NC(=O)[C@@H](CC(C)C)NC1=O [SEQ ID NO:58, [KSKLILIL]] (cyclo(I[dL]I[dL]K[dS]K[dL]))
Return: 50

Enquiry: Identify measured VRE (in vitro activity) corresponding to CC(C)C[C@@H]1NC(=O)[C@@H](Cc2c[nH]c3ccccc23)NC(=O)[C@H](Cc2ccccc2)NC(=O)[C@@H](CCCNC(=N)N)NC(=O)[C@H](CCC(N)=O)NC(=O)[C@@H](CCCNC(=N)N)NC(=O)[C@H](Cc2c[nH]c3ccccc23)NC(=O)[C@@H](Cc2c[nH]c3ccccc23)NC1=O [SEQ ID NO:68, [QRFWLWWR]] (cyclo(Q[dR]F[dW]L[dW]W[dR]))
Return: 3.8

Enquiry: Identify measured VRE (in vitro activity) corresponding to CC(C)C[C@H]1NC(=O)[C@H](CCCCN)NC(=O)[C@@H](CO)NC(=O)[C@H](CCCCN)NC(=O)[C@@H](CC(C)C)NC(=O)[C@H](Cc2ccccc2)NC(=O)[C@@H](CC(C)C)NC(=O)[C@H](Cc2ccccc2)NC1=O [SEQ ID NO:55, [KSKLFLFL]] (cyclo(F[dL]F[dL]K[dS]K[dL]))
Return: 50
